Where these numbers come from: ChEMBL document CHEMBL1961873

- Test target: Mitogen-activated protein kinase 3 (Homo sapiens) (UniProt P27361);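 also: values are mean percent inhibition of MAPK3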
- Sequence (P27361 whole entry): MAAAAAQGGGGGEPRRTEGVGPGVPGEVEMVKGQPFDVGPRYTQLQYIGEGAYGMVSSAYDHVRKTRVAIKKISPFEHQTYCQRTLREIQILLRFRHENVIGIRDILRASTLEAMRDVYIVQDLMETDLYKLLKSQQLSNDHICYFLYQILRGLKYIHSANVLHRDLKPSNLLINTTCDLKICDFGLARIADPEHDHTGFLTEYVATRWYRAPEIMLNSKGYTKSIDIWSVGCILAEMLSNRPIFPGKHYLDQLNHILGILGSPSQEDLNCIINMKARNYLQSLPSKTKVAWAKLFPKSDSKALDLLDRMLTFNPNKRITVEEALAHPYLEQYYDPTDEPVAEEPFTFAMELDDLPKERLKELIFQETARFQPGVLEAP
- Test settings: at 1 µM
Each entry below lists one item and its recorded inhibition value.
Recorded endpoint: inhibition (%)

>>> print(df.to_string())
                                    compound  reported_result
 0  COc1cc2c(cc1Nc1nc(Nc3cccc(F)c3C(N)=O)c3cc[nH]c3n1)N(C(=O)CN1CCN(C(C)C)CC1)CC2             3.92
 1  CS(=O)(=O)CCNCc1ccc(-c2ccc3ncnc(Nc4ccc(OCc5cccc(C(F)(F)F)c5)cc4)c3c2)o1                5
 2  CN(C)CCNC(=O)Nc1ccc(N(C)c2ccnc(Nc3ccc(CS(C)(=O)=O)cc3)n2)cc1             1.29
 3  CC1=C(C(=O)Nc2ccc3[nH]ncc3c2)C(c2ccc(F)cc2)N=C(c2ccc(C(F)(F)F)nc2)N1 (stereo not drawn)            -0.07
 4  NS(=O)(=O)c1cccc(N/C=C2\C(=O)Nc3ccccc32)c1             1.27
 5          N#Cc1cccc(Nc2ncc(-c3ccccc3)o2)c1             4.14
 6  COC(=O)Nc1nc2cc(Oc3ccc(NC(=O)Nc4ccccc4)cc3)ccc2[nH]1             4.97
 7  CC1=C(C(=O)Nc2ccc3[nH]nc(C)c3c2)C(c2ccc(C(F)(F)F)cc2)CC(=O)N1 (stereo not drawn)             19.7
 8  CCCNc1cccc(-n2ncc3c(N/N=C/c4ccncc4)ncnc32)c1             3.62
 9  CS(=O)(=O)CCNCc1ccoc1-c1ccc2ncnc(Nc3ccc(OCc4ccccc4)cc3)c2c1             1.25
10  COc1cccc(-n2ncc3c(N/N=C/c4ccc(C(=O)NCCN(C)C)cc4)ncnc32)c1             2.75
11      Cc1cc(O)cc(C)c1/C=C/c1cncc(C(N)=O)c1             2.77
12  c1ccc(-c2n[nH]cc2-c2ccnc(-c3ccc(OCCn4ccnc4)cc3)c2)nc1             1.75
